# Tested on: 616215-338-R-J1-PDC complex spheroids, viability % test/control
# test-method-notes: Anticancer human tumor 616215-338-R-J1-PDC patient-derived colon adenocarcinoma cell line growth inhibition [CLK]
# reported-conditions: second compound 0.1 µM; first compound 0.0316 µM; stronger effect = lower value
readout-name: viability, T/C

Challenge: Reported viability, T/C for Nc1ccn(C2OC(CO)C(O)C2(F)F)c(=O)n1 (stereo unspecified) + CN1CCN(c2cc(C(=O)Nc3cc4cc(-c5cnn(C)c5)ccc4cn3)ccn2)CC1 : what is it?
Response given: 18%

Challenge: Try CC1COCCN1c1cc(C2(S(C)(=N)=O)CC2)nc(-c2ccnc3[nH]ccc23)n1 (stereo unspecified) + CN1CCN(c2cc(C(=O)Nc3cc4cc(-c5cnn(C)c5)ccc4cn3)ccn2)CC1 next.
Response given: 117%

Challenge: Repeat for the following compound: COc1cccc2c1C(=O)c1c(O)c3c(c(O)c1C2=O)CC(O)(C(=O)CO)CC3OC1CC(N)C(O)C(C)O1 (stereo unspecified) + CN1CCN(c2cc(C(=O)Nc3cc4cc(-c5cnn(C)c5)ccc4cn3)ccn2)CC1
Response given: 71%

Challenge: For CC1COCCN1c1cc(C2(S(C)(=N)=O)CC2)nc(-c2ccnc3[nH]ccc23)n1 (stereo unspecified) + CNC(=O)c1ccc(Nc2nc(OC3CCCC3)c3c(-c4ccc5nc(C)oc5c4)c[nH]c3n2)c(OC)c1 then?
Response given: 53.4%

Challenge: Subsequent entry: COC1C=CCC(C)C(C)S(=O)(=O)NC(=O)c2ccc3c(c2)N(CC2CCC21)CC1(CCCc2cc(Cl)ccc21)CO3 (stereo unspecified) + CN1CCN(c2cc(C(=O)Nc3cc4cc(-c5cnn(C)c5)ccc4cn3)ccn2)CC1
Response given: 41.4%

Challenge: Again, but for C=CC(=O)N1CCN(c2nc(=O)n(-c3c(C)ccnc3C(C)C)c3nc(-c4c(O)cccc4F)c(F)cc23)C(C)C1 (stereo unspecified) + CNC(=O)c1ccc(Nc2nc(OC3CCCC3)c3c(-c4ccc5nc(C)oc5c4)c[nH]c3n2)c(OC)c1
Response given: 53.8%

###

# Tested on: 616215-338-R-J1-PDC complex spheroids, viability % test/control
# test-method-notes: Anticancer human tumor 616215-338-R-J1-PDC cell line growth inhibition [CLK];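 further: spheroids exposed to agents for 7 days; 100% = DMSO vehicle wells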
# reported-conditions: second compound 0.1 µM; first compound 0.1 µM; stronger effect = lower value
// assign T if viability, T/C falls strictly below 60%, else F (ties count as F)

Challenge: Decide: viability, T/C of CC1COCCN1c1cc(C2(S(C)(=N)=O)CC2)nc(-c2ccnc3[nH]ccc23)n1 (stereo not given) + CNC(=O)c1ccc(Nc2nc(OC3CCCC3)c3c(-c4ccc5nc(C)oc5c4)c[nH]c3n2)c(OC)c1 strictly below 60%?
Response given: T

Challenge: // repeat for CCCS(=O)(=O)Nc1ccc(F)c(C(=O)c2c[nH]c3ncc(-c4ccc(Cl)cc4)cc23)c1F + CN1CCN(c2cc(C(=O)Nc3cc4cc(-c5cnn(C)c5)ccc4cn3)ccn2)CC1 and report
Response given: T

Challenge: CC(Nc1ccc2c(c1)OCCn1cc(N3C(=O)OCC3C(F)F)nc1-2)C(N)=O (stereo not given) + CN1CCN(c2cc(C(=O)Nc3cc4cc(-c5cnn(C)c5)ccc4cn3)ccn2)CC1 , same question.
Response given: F

Challenge: CCc1c2c(nc3ccc(O)cc13)-c1cc3c(c(=O)n1C2)COC(=O)[C@]3(O)CC + CNC(=O)c1ccc(Nc2nc(OC3CCCC3)c3c(-c4ccc5nc(C)oc5c4)c[nH]c3n2)c(OC)c1 ?
Response given: T

Challenge: Entry CCN1CCN(Cc2ccc(Nc3ncc(F)c(-c4cc(F)c5nc(C)n(C(C)C)c5c4)n3)nc2)CC1 + CNC(=O)c1ccc(Nc2nc(OC3CCCC3)c3c(-c4ccc5nc(C)oc5c4)c[nH]c3n2)c(OC)c1 please
Response given: T

###

Give measured viability, T/C for each item. Keep answers brief.
# System: 616215-338-R-J1-PDC complex spheroids, viability % test/control
# test-method-notes: Anticancer human tumor 616215-338-R-J1-PDC cell line growth inhibition [CLK];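 further: spheroids exposed to agents for 7 days; 100% = DMSO vehicle wells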
# reported-conditions: second compound 1 µM; first compound 3.16 µM; stronger effect = lower value
Only the number, expressed in %, is required.

Challenge: Under 616215-338-R-J1-PDC complex spheroids, viability % test/control: viability, T/C value of CC(Nc1ccc2c(c1)OCCn1cc(N3C(=O)OCC3C(F)F)nc1-2)C(N)=O (stereo not drawn) + CN1CCN(c2cc(C(=O)Nc3cc4cc(-c5cnn(C)c5)ccc4cn3)ccn2)CC1 ?
Response given: 0.88

Challenge: Same thing, different compound: C=CC(=O)N1CCN(c2nc(=O)n(-c3c(C)ccnc3C(C)C)c3nc(-c4c(O)cccc4F)c(F)cc23)C(C)C1 (stereo not drawn) + CN1CCN(c2cc(C(=O)Nc3cc4cc(-c5cnn(C)c5)ccc4cn3)ccn2)CC1
Response given: 0.15

Challenge: Request: CCCS(=O)(=O)Nc1ccc(F)c(C(=O)c2c[nH]c3ncc(-c4ccc(Cl)cc4)cc23)c1F + CN1CCN(c2cc(C(=O)Nc3cc4cc(-c5cnn(C)c5)ccc4cn3)ccn2)CC1
Response given: 0.6

Challenge: Moving on to the next compound: CC(=O)O[C@H]1C(=O)[C@@]2(C)[C@H]([C@H](OC(=O)c3ccccc3)[C@]3(O)C[C@H](OC(=O)[C@H](O)[C@@H](NC(=O)c4ccccc4)c4ccccc4)C(C)=C1C3(C)C)[C@]1(OC(C)=O)CO[C@@H]1C[C@@H]2O + CN1CCN(c2cc(C(=O)Nc3cc4cc(-c5cnn(C)c5)ccc4cn3)ccn2)CC1
Response given: 0.1

Challenge: Item: COc1cccc2c1C(=O)c1c(O)c3c(c(O)c1C2=O)CC(O)(C(=O)CO)CC3OC1CC(N)C(O)C(C)O1 (stereo not drawn) + CNC(=O)c1ccc(Nc2nc(OC3CCCC3)c3c(-c4ccc5nc(C)oc5c4)c[nH]c3n2)c(OC)c1
Response given: 0.2

Challenge: O=C(c1cc(Cc2n[nH]c(=O)c3ccccc23)ccc1F)N1CCN(C(=O)C2CC2)CC1 + CNC(=O)c1ccc(Nc2nc(OC3CCCC3)c3c(-c4ccc5nc(C)oc5c4)c[nH]c3n2)c(OC)c1 , same question.
Response given: 52.6

Challenge: Repeat for the following compound: O=c1[nH]cc(F)c(=O)[nH]1 + CN1CCN(c2cc(C(=O)Nc3cc4cc(-c5cnn(C)c5)ccc4cn3)ccn2)CC1
Response given: 2.58

Challenge: Same again, this time with Nc1ccn(C2OC(CO)C(O)C2(F)F)c(=O)n1 (stereo not drawn) + CN1CCN(c2cc(C(=O)Nc3cc4cc(-c5cnn(C)c5)ccc4cn3)ccn2)CC1
Response given: 1.83

###

# Tested on: 616215-338-R-J1-PDC complex spheroids, viability % test/control
# test-method-notes: Anticancer human tumor 616215-338-R-J1-PDC cell line growth inhibition [CLK]; active = viability on the fitted dose curve at most 10% of control; inactive = the rest;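 further: spheroids exposed to agents for 7 days; 100% = DMSO vehicle wells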
# reported-conditions: second compound 3.16 µM; first compound 0.0316 µM
Your response should consist of one outcome taken from TRUE for active, FALSE for inactive

Challenge: Hi team, can someone confirm the assay call for C=C(F)C(=O)N1CCN(c2nc(OCC3CCCN3C)nc3c2CCN(c2cccc4cccc(Cl)c24)C3)CC1CC#N (configuration not stated) + CN1CCN(c2cc(C(=O)Nc3cc4cc(-c5cnn(C)c5)ccc4cn3)ccn2)CC1 ?
Response given: TRUE

Challenge: Next compound: C=C(F)C(=O)N1CCN(c2nc(OCC3CCCN3C)nc3c2CCN(c2cccc4cccc(Cl)c24)C3)CC1CC#N (configuration not stated) + CNC(=O)c1ccc(Nc2nc(OC3CCCC3)c3c(-c4ccc5nc(C)oc5c4)c[nH]c3n2)c(OC)c1
Response given: FALSE

Challenge: How about this compound: O=c1[nH]cc(F)c(=O)[nH]1 + CNC(=O)c1ccc(Nc2nc(OC3CCCC3)c3c(-c4ccc5nc(C)oc5c4)c[nH]c3n2)c(OC)c1
Response given: FALSE

Challenge: Do the same for O=C(c1cc(Cc2n[nH]c(=O)c3ccccc23)ccc1F)N1CCN(C(=O)C2CC2)CC1 + CNC(=O)c1ccc(Nc2nc(OC3CCCC3)c3c(-c4ccc5nc(C)oc5c4)c[nH]c3n2)c(OC)c1 please
Response given: FALSE

Challenge: Try this compound too: CCCS(=O)(=O)Nc1ccc(F)c(C(=O)c2c[nH]c3ncc(-c4ccc(Cl)cc4)cc23)c1F + CNC(=O)c1ccc(Nc2nc(OC3CCCC3)c3c(-c4ccc5nc(C)oc5c4)c[nH]c3n2)c(OC)c1
Response given: FALSE

Challenge: What about O=c1[nH]cc(F)c(=O)[nH]1 + CN1CCN(c2cc(C(=O)Nc3cc4cc(-c5cnn(C)c5)ccc4cn3)ccn2)CC1 ?
Response given: TRUE

Challenge: Now the compound CCN1CCN(Cc2ccc(Nc3ncc(F)c(-c4cc(F)c5nc(C)n(C(C)C)c5c4)n3)nc2)CC1 + CNC(=O)c1ccc(Nc2nc(OC3CCCC3)c3c(-c4ccc5nc(C)oc5c4)c[nH]c3n2)c(OC)c1
Response given: FALSE

Taken from PubChem BioAssay AID2060610.
